Items are presented alongside their recorded Enzymatic activity pIC50 C.1..
- targetOrTestSystem: histone deacetylase (HeLa nuclear extracts)
- protocolSummary: In vitro assay for inhibition of histone deacetylase (HDAC Fluorescent Activity Assay, Fluor de Lys)
- Assay type: biochemical
- recordedConditions: Fluor de Lys substrate
Give the figure only, with no unit attached.

Previously resolved entries follow.
>>> measurement("CCCCN(C)C(=O)C(C)(/C=C/c1ccc(F)cc1)N1CCN(c2ncc(C(=O)NO)cn2)CC1 (centres unmarked)")
7.7
>>> measurement("COCC(/C=C/c1ccccc1)N1CCN(c2ncc(C(=O)NO)cn2)CC1 (centres unmarked)")
9.4
>>> measurement("CN(C)C(=O)C(C)(/C=C/c1ccc(F)cc1)N1CCN(c2ncc(C(=O)NO)cn2)CC1 (centres unmarked)")
8.4
>>> measurement("O=C(NO)c1cnc(N2CCN(C(/C=C/c3ccc(Cl)cc3)CO)CC2)nc1 (centres unmarked)")
8.2
>>> measurement("O=C(NO)c1cnc(N2CCN(C(/C=C/c3ccc(-c4ccccc4)cc3)CO)CC2)nc1 (centres unmarked)")
7.9

Value lookup for Enzymatic activity pIC50 C.1.; key = O=C(NO)c1cnc(N2CCN(C(/C=C/c3ccccc3)CN3CCOCC3)CC2)nc1 (centres unmarked)
7.9

Value lookup for Enzymatic activity pIC50 C.1.; key = O=C(NO)c1cnc(N2CCN(C(/C=C/c3ccc(Cl)cc3)CN3CCOCC3)CC2)nc1 (centres unmarked)
7.4

Value lookup for Enzymatic activity pIC50 C.1.; key = O=C(NO)c1cnc(N2CCN(C(/C=C/c3ccccc3)C(=O)NCCO)CC2)nc1 (centres unmarked)
8.4
